experimental-system: wt MPER peptide (HIV-1)
Can you tell me koff for the items I'm about to list?
The response must be a number in s⁻¹ with no trailing unit.

// field: koff; key: 2F5 variant e4W (antibody, V domains shown) VH: RITLKESGPPLVKPTQTLTLTCSFSGFSLSDFGVGVGWIRQPPGKALEWLAIIYSDDDKRYSPSLNTRLTITKDTSKNQVVLVMTRVSPVDTATYFCAHRRGPTTGGLFGWGGPIARGPVNAMDVWGQGITVTISS VL: ALQLTQSPSSLSASVGDRITITCRASQGVTSALAWYRQKPGSPPQLLIYDASSLESGVPSRFSGSGSGTEFTLTISTLRPEDFATYYCQQLHFYPHTFGGGTRVDVR ; value = 0.0105

# koff (binder: 2F5 variant r4WY2 (antibody, V domains shown) VH: RITLKESGPPLVKPTQTLTLTCSFSGFSLSDFGVGVGWIRQPPGKALEWLAIIYSDDDKRYSPSLNTRLTITKDTSKNQVVLVMTRVSPVDTATYFCAHRRGPYFGWYRGPVNAMDVWGQGITVTISS VL: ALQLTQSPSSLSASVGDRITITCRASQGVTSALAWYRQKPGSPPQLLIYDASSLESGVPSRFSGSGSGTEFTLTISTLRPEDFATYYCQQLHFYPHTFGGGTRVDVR ) is 0.00193

Lookup result for 2F5 variant r4W2c (antibody, V domains shown) VH: RITLKESGPPLVKPTQTLTLTCSFSGFSLSDFGVGVGWIRQPPGKALEWLAIIYSDDDKRYSPSLNTRLTITKDTSKNQVVLVMTRVSPVDTATYFCAHRRGPWFGWARGPVNAMDVWGQGITVTISS VL: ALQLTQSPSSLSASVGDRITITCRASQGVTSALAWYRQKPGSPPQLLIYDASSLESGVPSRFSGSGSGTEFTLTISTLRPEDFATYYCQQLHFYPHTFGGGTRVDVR ; measured koff: 0.00112

Measured koff of 2F5 variant e2W (antibody, V domains shown) VH: RITLKESGPPLVKPTQTLTLTCSFSGFSLSDFGVGVGWIRQPPGKALEWLAIIYSDDDKRYSPSLNTRLTITKDTSKNQVVLVMTRVSPVDTATYFCAHRRGPTTGLFGWGPIARGPVNAMDVWGQGITVTISS VL: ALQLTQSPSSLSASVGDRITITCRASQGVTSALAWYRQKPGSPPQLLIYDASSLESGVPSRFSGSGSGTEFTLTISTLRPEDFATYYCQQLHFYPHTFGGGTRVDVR : 0.0105
